I'd appreciate it if you could supply PBM binding z-score values for the items below.
- System: LXRb homodimer (NR concentration 270 nM)
- measurement protocol: PBM binding z-score (relative to random genomic background probes); higher = stronger binding; sequences stand for … in GC…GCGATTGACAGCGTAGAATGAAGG
// keep it numeric: no unit symbol after the value

// returns reported PBM binding z-score for input CGTCCAAGGTCTGCAGGTCAGTGAAAGCGACGTG
-1.21

Suppose we examine the sequence GCTAGTTGGACAGTAAAAGGTCACACACCGGTCG ; what PBM binding z-score value has been reported?
0.188

Data request, read-out PBM binding z-score, for GCTTACGTGTCAAAGGTTATAGCATGAATAGAAT
-0.0977

Given AGAATGAGGTTCCCAAAGATCAGGGAAACGCTTG , state its recorded PBM binding z-score.
-0.694

# input sequence: TCATATAGGTACTACAGGTGAAAGTCGGCATCTA ; wanted: its PBM binding z-score
0.0353

Field request: PBM binding z-score | item: CTTACTGGGCCATTCAGAGGTCATTGATCATATG
0.985

Request the reported PBM binding z-score associated with CTCGAAAGGTTGGTTGAGGTGAGTATACGGATAA
-0.269

# lookup: PBM binding z-score of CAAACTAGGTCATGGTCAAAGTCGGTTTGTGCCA
0.0742

Bench note: what PBM binding z-score did CCTCGGTGGACAACAGGAGGTCAGAGCTGCCAGA show?
-0.647

Find the recorded PBM binding z-score belonging to CCTGCTAGGTCAATGGTCAGCTACAGCAGCTCGC and report it.
-0.217

Would you mind telling me what PBM binding z-score value was observed for ATCGAAAGGTCGAAGGTGAGTATGCCCACCCGAA ?
0.664

Sample TCATATAGGTAAACAGGTGAATGTCCGTAAGTTA — what was its PBM binding z-score?
0.0472

Param item = TCCAGTTGGTCAAAGGTCACACACTCGAAATGCG ; retrieve measured PBM binding z-score.
1.6

Any idea what PBM binding z-score was measured for ATCTCTAGTTAACAAGTTCAGTGAAAGAGAGGAC ?
1.22

Please give the measured PBM binding z-score for this sequence: CGAACGAGGGGATGAGTTGATAGCAAATGCCGAT
-0.345

Which value of PBM binding z-score has been reported for AGAACGAGGGCCATGAGTTGATAGCACGGGTGGC in the records?
-0.764

Can you share its PBM binding z-score? I mean this sequence: AATACACGGTCATCGTAGGCCAGAGTACGCACAG
0.643

# lookup: PBM binding z-score of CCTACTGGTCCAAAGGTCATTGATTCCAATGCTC
1.52

Query: PBM binding z-score; subject: TCTGCAAGGTCAACGATGGTCAGCTAATCTGCTA
0.582

Name the recorded PBM binding z-score for CAAACTAGGTCAAAGGTCGAAGTCGAGCCAACCA .
0.909

Need PBM binding z-score, item TCAAACAGGTGAAGGTAACTCAGGTACGCAGTCG
-0.218

Value lookup for PBM binding z-score; key = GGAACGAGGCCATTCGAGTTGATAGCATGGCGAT
-0.846

Given the sequence CATACTGGGCCAAGGTCATTGATCAGTCAAAGCA , what is its reported PBM binding z-score?
0.044

So what's the measured PBM binding z-score for this one? GCATATAGGTGATACAAGGTGAAAGTCCGATTGT
-0.213

Sample CCTTAAGGGTCACTGACAGGTTATAGCATTTGGA — what was its PBM binding z-score?
0.447

Reported PBM binding z-score, sequence CGTCCAAGGTCAAAGATCAGTGAAGAGATGACGG : ____
1.25

###

Record form. Attribute: PBM binding z-score. Fill in for each entry.
- Test system: RARb:RXRa (NR concentration 270 nM, RXRa partner concentration 90 nM)
- measurement protocol: PBM binding z-score (relative to random genomic background probes); higher = stronger binding; sequences stand for … in GC…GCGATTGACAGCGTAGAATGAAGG
Format: numeric value only, no unit, no commentary.

What value of measured PBM binding z-score is listed for TCTTGTAGCTCAGCAGGTTAAGAAAGCTGGCCAA ?
-0.157

So what does the record say about PBM binding z-score for CGTCCAAGGTCAATGCTAGGTCAGAGAAAGCATT ?
5.25

Find the recorded PBM binding z-score belonging to CATCCAAGGTCAGCAGGTCAGTGAAAGCGACGTG and report it.
5.17

What does the data say about its PBM binding z-score? Entry: TCGAGTAGGTTAGTCGGGGCATTCACCCAACATA
0.447

// PBM binding z-score lookup, key: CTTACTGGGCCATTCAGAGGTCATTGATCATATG
3.23

Entry CCGACTGGGGCAAGGATACCATAACGCACAGCCA : reported PBM binding z-score = ?
0.558

Form field: reported PBM binding z-score of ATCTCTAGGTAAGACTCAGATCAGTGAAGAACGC
-0.146

Query (sequence): TCGAGTAGGTTACCAATGGGGCATTCCGCTTTCT ; field requested: PBM binding z-score
0.81

PBM binding z-score lookup needed for TCGAGTAGGTTAGTCGGGGCATACAGCCAACATA , thanks.
0.592

If you can, please state the reported PBM binding z-score value of TTACCAAGGTGGAGGTCGTTGATCCCTCTGTAGA .
0.92

Given the sequence CCTACTGGGCCACGAAAGGTCATTGGTTCAGTGA , what is its reported PBM binding z-score?
3.96

Return reported PBM binding z-score; argument: CGAACTAGGTCAGAACTGGACAGTGAAGGATGAT
2.71

###

- Tested on: PPARg:RXRa 270nM:90nM, anti-RXR (NR concentration 270 nM, RXRa partner concentration 90 nM)
- measurement protocol: PBM binding z-score (relative to random genomic background probes); higher = stronger binding; sequences stand for … in GC…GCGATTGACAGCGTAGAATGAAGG
Kindly return Yes if reported PBM binding z-score is no lower than 2; return No if it is lower.

Form field: PBM binding z-score at least 2? Entry: ATCTCTATGTAACCAAGTTCAGTGAATGCCGAAC
No

Item TCATATAGGTAAATGCTAGGTGAAAGTCCGATCT with PBM binding z-score of 2 or above?
Yes

Check if PBM binding z-score >= 2 (inclusive). Item: CCTAGCAGGCCAGGGTCACTCCAGCATTTCGCTT
No

Reported PBM binding z-score reaches at least 2 for CCTACCGGGCCAAGGTCATTGATCAGTCAAAGCA ?
Yes

In plain terms: is recorded PBM binding z-score at least 2 for CGTCAAAGTTCAGCTAAGGTAACGTAAAGCACGC ?
Yes

Does the sequence TAGCCTAGGTCAGAGCGGGCCAGTATACGCTATA have recorded PBM binding z-score that is 2 or more?
No

Hi, just wondering whether CCTGCTAGGGCAATGGTCAGCTAAAGCAGCTCGC shows PBM binding z-score of 2 or higher.
Yes

Confirm if PBM binding z-score reported for the sequence TAGCCTAGGTCATTCAGTGGCCAGTATAGAAAGC is 2 or above.
Yes

Confirm if PBM binding z-score reported for the sequence CCGAGTTGGTCAGGAGGTCACACACCGGATATGA is 2 or above.
Yes

Is it the case that AATAGCAGGCCAAGTTTGGGTCACTCAAACAAAG has PBM binding z-score reaching or exceeding 2?
No

Could you please find out whether CCTTACGGGTCTCTGACAGGTTATAGCATTTGGA has PBM binding z-score that meets 2 or exceeds it?
No
